test system: corn; experiment: Test B pre/postemergence corn; type: in vivo, Zea mays; conditions: Postemergence, Rate 62 g/ha; scale 0 to 10, 0 is no effect, 10 is complete control
measurementLabel: Corn plant response rating
Answer with the value's number alone.

Check out these entries, answers already filled in.
COc1ccccc1-n1c(=O)on(C(=O)N(c2ccc(F)cc2F)C(C)C)c1=O [Compound 31]: 0
Cc1cccc(C(C)C)c1-n1c(=O)on(C(=O)N(c2ccc(F)cc2)C(C)C)c1=O [Compound 65]: 0
CC(C)N(C(=O)n1oc(=O)n(Cc2cccs2)c1=O)c1ccc(F)cc1F [Compound 86]: 0
Cc1ccccc1-n1c(=O)on(C(=O)N(c2ccc(F)c(F)c2)C(C)C)c1=O [Compound 48]: 0
CCCn1c(=O)on(C(=O)N(c2ccccc2)C(C)C)c1=O [Compound 92]: 0

From here, focus on the item given below.
Let me check: COc1ccc(-n2c(=O)on(C(=O)N(c3ccc(F)cc3F)C(C)C)c2=O)c(OC)c1 [Compound 32] , system corn, measured Corn plant response rating is 0

---

Attribute: B. signalgrass plant response rating
system: surinam grass; experiment: Test B pre/postemergence surinam grass; format: in vivo, Brachiaria decumbens; conditions: Preemergence, Rate 500 g/ha; scale 0 to 10 (0 no effect, 10 complete control)
Answer with the value's number alone.

Check out these entries, answers already filled in.
Cc1nsc(C)c1-n1c(=O)on(C(=O)N(c2ccc(Cl)cc2)C(C)C)c1=O: 0
CC(C)N(Cc1ccccc1)C(=O)n1oc(=O)n(C(C)C)c1=O: 6
CC1CCCCC1n1c(=O)on(C(=O)N(c2ccccc2)C(C)C)c1=O (centres unmarked): 7
CC(C)N(C(=O)n1oc(=O)n(C)c1=O)c1ccc(F)cc1: 9

From here, focus on the item given below.
Per the records, this molecule ( CC(C)N(C(=O)n1oc(=O)n([C@@H](C)c2ccccc2)c1=O)c1ccc(F)cc1 ) has B. signalgrass plant response rating equal to 8

---

Attribute: Giant foxtail plant response rating
system: giant foxtail; assay: Test B pre/postemergence giant foxtail; format: in vivo, Setaria faberii; conditions: Rate 500 g/ha, Postemergence; scale 0 to 10

Let me check: Cc1nsc(C)c1-n1c(=O)on(C(=O)N(c2ccc(Cl)cc2)C(C)C)c1=O , system giant foxtail, measured Giant foxtail plant response rating is 0

Let me check: CC(C)N(C(=O)n1oc(=O)n(-c2ccc(OC(F)(F)F)cc2)c1=O)c1ccc(F)cc1 , system giant foxtail, measured Giant foxtail plant response rating is 2

Let me check: CC(C)N(C(=O)n1oc(=O)n(C)c1=O)c1ccc(F)cc1 , system giant foxtail, measured Giant foxtail plant response rating is 9

Let me check: C=CCn1c(=O)on(C(=O)N(c2ccc(F)cc2)C2CC2)c1=O , system giant foxtail, measured Giant foxtail plant response rating is 3

Let me check: CC(C)N(C(=O)n1oc(=O)n(CC=Cc2ccccc2)c1=O)c1ccc(F)cc1 , system giant foxtail, measured Giant foxtail plant response rating is 0

Let me check: CC(C)N(C(=O)n1oc(=O)n([C@@H](C)c2ccccc2)c1=O)c1ccc(F)cc1 , system giant foxtail, measured Giant foxtail plant response rating is 0

---

Test system: crabgrass
Test: Test B pre/postemergence crabgrass
Assay type: in vivo, Digitaria sanguinalis
Details: Preemergence, Rate 62 g/ha; scale 0 to 10, 0 is no effect, 10 is complete control
Description: […] At the same time, these crop and weed species were also treated with postemergence applications of test chemicals formulated in the same manner. […] Treated plants and controls were maintained in a greenhouse for twelve to sixteen days, after which all species were compared to controls and visually evaluated. […]
measurementLabel: Plant response rating, Crabgrass
Answer with the value's number alone.

Per the records, this molecule ( CC(C)N(C(=O)n1oc(=O)n(-c2ccccc2)c1=O)c1ccc(F)cc1 [Compound 38] ) has Plant response rating, Crabgrass equal to 2

Per the records, this molecule ( COc1ccc(-n2c(=O)on(C(=O)N(c3ccc(F)cc3F)C(C)C)c2=O)c(OC)c1 [Compound 32] ) has Plant response rating, Crabgrass equal to 4

Per the records, this molecule ( Cc1ccccc1-n1c(=O)on(C(=O)N(c2ccc(F)c(F)c2)C(C)C)c1=O [Compound 48] ) has Plant response rating, Crabgrass equal to 1

Per the records, this molecule ( CC(C)N(C(=O)n1oc(=O)n(-c2c(Cl)cccc2Cl)c1=O)c1ccc(F)cc1 [Compound 19] ) has Plant response rating, Crabgrass equal to 3

Per the records, this molecule ( COc1ccccc1-n1c(=O)on(C(=O)N(c2ccc(F)cc2F)C(C)C)c1=O [Compound 31] ) has Plant response rating, Crabgrass equal to 9

Per the records, this molecule ( CCN(C(=O)n1oc(=O)n(-c2ccccc2OC)c1=O)C1CCCCC1 [Compound 29] ) has Plant response rating, Crabgrass equal to 3
